System: AMBROSIA ARTEMISIIFOLIA, L.
experiment.description: Preemergence herbicidal evaluation, AMBEL (Ragweed, Common)
Type: in vivo
stated.conditions: 0.125 kg/ha, rated four to five weeks after treatment
readout.name: Herbicide rating (0-9) AMBEL

> print(dat)
                            compound.smiles  recorded.value
1  COC(=O)Cn1c(=O)n(C)c(=O)n(-c2cc(N3C(=O)C4=C(CCCC4)C3=O)ccc2F)c1=O             0.0
2  Cn1c(=O)n(CC(=O)OC(C)(C)C)c(=O)n(-c2cc(N3C(=O)C4=C(CCCC4)C3=O)c(Cl)cc2Cl)c1=O             0.0
3  CCOC(=O)Cn1c(=O)n(CC(=O)OC(C)(C)C)c(=O)n(-c2ccc(F)c(N3C(=O)C4=C(CCCC4)C3=O)c2)c1=O             0.0

* * *

System: IPOMOEA SPP.
experiment.description: Preemergence herbicidal evaluation, IPOSS (Morningglory Spp.)
Assay type: in vivo
stated.conditions: 0.125 kg/ha, rated four to five weeks after treatment
readout.name: Herbicide rating (0-9) IPOSS

> print(dat)
                                   compound   system.name  recorded.value
1  COC(=O)Cn1c(=O)n(C)c(=O)n(-c2cc(N3C(=O)C4=C(CCCC4)C3=O)c(Cl)cc2Cl)c1=O [Compound 6]  IPOMOEA SPP.             4.0
2  Cn1c(=O)n(CC(=O)O)c(=O)n(-c2cc(N3C(=O)C4=C(CCCC4)C3=O)c(F)cc2Cl)c1=O [Compound 3]  IPOMOEA SPP.             0.0
3  CCOC(=O)Cn1c(=O)n(CC(=O)OC(C)(C)C)c(=O)n(-c2ccc(F)c(N3C(=O)C4=C(CCCC4)C3=O)c2)c1=O [Compound 8]  IPOMOEA SPP.             0.0
4  CCOC(=O)Cn1c(=O)[nH]c(=O)n(-c2ccc(F)c(N3C(=O)C4=C(CCCC4)C3=O)c2)c1=O [Compound 9]  IPOMOEA SPP.             0.0
5  Cn1c(=O)n(CC(=O)OC(C)(C)C)c(=O)n(-c2cc(N3C(=O)C4=C(CCCC4)C3=O)c(Cl)cc2Cl)c1=O [Compound 7]  IPOMOEA SPP.             0.0

* * *

Tested on: TRITICUM AESTIVUM, CV. APOLLO
experiment.description: Preemergence herbicidal evaluation, TRZAWO (Wheat, Winter, CV. APOLLO)
Assay type: in vivo
stated.conditions: 0.250 kg/ha, rated four to five weeks after treatment
Text: Results of herbicide evaluation are expressed on a rating scale (0-9). The scale is based upon a visual observation of plant stand, vigor, malformation, size, chlorosis and overall plant appearance as compared with a control. […]
readout.name: Herbicide rating (0-9) TRZAWO

> print(dat)
                                   compound  recorded.value
1  CCOC(=O)Cn1c(=O)n(CC(=O)OC(C)(C)C)c(=O)n(-c2ccc(F)c(N3C(=O)C4=C(CCCC4)C3=O)c2)c1=O             0.0
2  CC(C)OC(=O)Cn1c(=O)n(C)c(=O)n(-c2cc(N3C(=O)C4CSCCN4C3=O)c(F)cc2Cl)c1=O (stereo not shown)             0.0
3  Cn1c(=O)n(CC(=O)O)c(=O)n(-c2cc(N3C(=O)C4=C(CCCC4)C3=O)c(F)cc2Cl)c1=O             0.0
4  Cn1c(=O)n(CC(=O)OC(C)(C)C)c(=O)n(-c2cc(N3C(=O)C4=C(CCCC4)C3=O)c(F)cc2Cl)c1=O             1.0

* * *

Below: a set of entries, each annotated with reported Herbicide rating (0-9) CHEAL.
Tested on: CHENOPODIUM ALBUM, L.
experiment.description: Preemergence herbicidal evaluation, CHEAL (Lambsquarters, Common)
Assay type: in vivo
stated.conditions: 0.125 kg/ha, rated four to five weeks after treatment
readout.name: Herbicide rating (0-9) CHEAL

> print(dat)
                                   compound            system.name  recorded.value
1  CC(C)OC(=O)Cn1c(=O)n(C)c(=O)n(-c2cc(N3C(=O)c4cccc(F)c4C3=O)c(F)cc2Cl)c1=O [Compound 11]  CHENOPODIUM ALBUM, L.             9.0
2  COC(=O)Cn1c(=O)n(C)c(=O)n(-c2cc(N3C(=O)C4=C(CCCC4)C3=O)c(F)cc2Cl)c1=O [Compound 1]  CHENOPODIUM ALBUM, L.             9.0
3  CC(C)OC(=O)Cn1c(=O)n(C)c(=O)n(-c2cc(N3C(=O)C4=C(CCCC4)C3=O)c(F)cc2Cl)c1=O [Compound 4]  CHENOPODIUM ALBUM, L.             9.0
4  CCOC(=O)Cn1c(=O)n(CC(=O)OC(C)(C)C)c(=O)n(-c2ccc(F)c(N3C(=O)C4=C(CCCC4)C3=O)c2)c1=O [Compound 8]  CHENOPODIUM ALBUM, L.             0.0

* * *

Below: a set of entries, each annotated with reported Herbicide rating (0-9) CASOB.
System: CASSIA OBTUSIFOLIA, L.
experiment.description: Preemergence herbicidal evaluation, CASOB (Sicklepod)
Format: in vivo
stated.conditions: 0.250 kg/ha, rated four to five weeks after treatment
readout.name: Herbicide rating (0-9) CASOB

> print(dat)
                                   molecule  recorded.value
1  CC(C)OC(=O)Cn1c(=O)n(C)c(=O)n(-c2cc(N3C(=O)c4cccc(F)c4C3=O)c(F)cc2Cl)c1=O [Compound 11]             0.0
2  CC(C)OC(=O)Cn1c(=O)n(C)c(=O)n(-c2cc(N3C(=O)C4CSCCN4C3=O)c(F)cc2Cl)c1=O (centres unmarked) [Compound 12]             9.0
3  Cn1c(=O)n(CC(=O)OC(C)(C)C)c(=O)n(-c2cc(N3C(=O)C4=C(CCCC4)C3=O)c(Cl)cc2Cl)c1=O [Compound 7]             0.0
4  COC(=O)Cn1c(=O)n(C)c(=O)n(-c2cc(N3C(=O)C4=C(CCCC4)C3=O)ccc2F)c1=O [Compound 5]             0.0
5  CCOC(=O)Cn1c(=O)[nH]c(=O)n(-c2ccc(F)c(N3C(=O)C4=C(CCCC4)C3=O)c2)c1=O [Compound 9]             0.0

* * *

Below: a set of entries, each annotated with reported Herbicide rating (0-9) TRZAWO.
System: TRITICUM AESTIVUM, CV. APOLLO
experiment.description: Preemergence herbicidal evaluation, TRZAWO (Wheat, Winter, CV. APOLLO)
Assay type: in vivo
stated.conditions: 0.125 kg/ha, rated four to five weeks after treatment
readout.name: Herbicide rating (0-9) TRZAWO

> print(dat)
                                   compound                   readout.name  recorded.value
1  Cn1c(=O)n(CC(=O)OC(C)(C)C)c(=O)n(-c2cc(N3C(=O)C4=C(CCCC4)C3=O)c(F)cc2Cl)c1=O [Compound 2]  Herbicide rating (0-9) TRZAWO             1.0
2  CC(C)OC(=O)Cn1c(=O)n(C)c(=O)n(-c2cc(N3C(=O)C4CSCCN4C3=O)c(F)cc2Cl)c1=O (stereo not drawn) [Compound 12]  Herbicide rating (0-9) TRZAWO             0.0
3  CCOC(=O)Cn1c(=O)[nH]c(=O)n(-c2ccc(F)c(N3C(=O)C4=C(CCCC4)C3=O)c2)c1=O [Compound 9]  Herbicide rating (0-9) TRZAWO             0.0
4  COC(=O)Cn1c(=O)n(C)c(=O)n(-c2cc(N3C(=O)C4=C(CCCC4)C3=O)c(F)cc2Cl)c1=O [Compound 1]  Herbicide rating (0-9) TRZAWO             0.0
5  CC(C)OC(=O)Cn1c(=O)n(C)c(=O)n(-c2cc(N3C(=O)c4cccc(F)c4C3=O)c(F)cc2Cl)c1=O [Compound 11]  Herbicide rating (0-9) TRZAWO             0.0
6  COC(=O)Cn1c(=O)n(C)c(=O)n(-c2cc(N3C(=O)C4=C(CCCC4)C3=O)c(F)cc2F)c1=O [Compound 10]  Herbicide rating (0-9) TRZAWO             0.0
